B1: EEHEE_rd4_0647 (parent)
chain: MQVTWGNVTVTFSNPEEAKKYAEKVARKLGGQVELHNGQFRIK

Variants of: B1
Assay: folding stability dG (cDNA display proteolysis); higher = more stable
Settings: PBS, room temperature
Each item that follows carries a reported folding stability dG.
Assay Endpoint: folding stability dG (kcal/mol)

INSERT INTO results (variant_designation, measured_number) VALUES
  ('T9E', 1.46),
  ('T9Y', 1.85),
  ('Y21C', 2.87),
  ('M1N', 2.45),
  ('R27K', 2.88),
  ('V10E', 1.5),
  ('K20R', 2.96),
  ('N7S', 2.68),
  ('V10F', 2.53),
  ('E16F', 2.71),
  ('G31F', 2.21),
  ('E23A', 2.43),
  ('Q39P', 0.269),
  ('A26V', 1.66),
  ('M1T', 3.28),
  ('E16I', 2.81),
  ('V25R', 1.33),
  ('K20H', 2.57),
  ('F12K', 0.98),
  ('T4I', 2.97),
  ('G31A', 2.62),
  ('V33C', 1.95),
  ('K24Q', 2.8),
  ('K28R', 2.98),
  ('K24H', 2.89),
  ('E34W', 2.2),
  ('R27A', 2.78),
  ('V33I', 2.62),
  ('A18H', 0.323),
  ('Q2E', 2.52),
  ('G38P', 0.661),
  ('Q39I', 3.09),
  ('N37I', 1.41),
  ('K19D', 0.816),
  ('G30H', 2.53),
  ('M1G', 1.95),
  ('A22H', 0.174),
  ('V3A', 0.626),
  ('G31H', 2.11),
  ('Q39Y', 2.29),
  ('W5V', 2.64),
  ('L35G', 1.48),
  ('W5K', 0.547),
  ('Y21H', 1.36),
  ('I42P', 0.784),
  ('L29H', 2.06),
  ('T4F', 2.24),
  ('L29G', 1.17),
  ('N14R', 2.47),
  ('K19N', 1.71),
  ('Q32D', 2.11),
  ('A18R', 0.219),
  ('V25G', 0.217),
  ('E23Y', 3.15),
  ('M1W', 3.72),
  ('Q39M', 2.61),
  ('F12R', 0.663),
  ('E23F', 2.98),
  ('P15Y', 3.5),
  ('G38K', 1.81),
  ('V3Q', 0.078),
  ('E23N', 2.44),
  ('N37V', 1.39),
  ('V33H', 0.75),
  ('K20D', 2.54),
  ('Q2N', 2.49),
  ('L29Y', 2.63),
  ('Q32W', 3.18),
  ('A26D', 0.03),
  ('E16L', 2.78),
  ('A18L', 1),
  ('A22N', 0.101),
  ('R27S', 2.4),
  ('N37K', 2.26),
  ('I42R', 0.514),
  ('N14K', 2.42),
  ('G30K', 2.4),
  ('T11V', 2.59),
  ('R41E', 2.25),
  ('V8F', 2.81),
  ('L35Y', 3.14),
  ('S13E', 2.65),
  ('G31K', 1.8),
  ('A18D', -0.206),
  ('N14T', 2.89),
  ('W5Y', 2.53),
  ('H36T', 2.6),
  ('V25A', 1.61);
